Target: α4β7 integrin (Homo sapiens (Human), UniProt P13612+P26010)
Sequence (P13612 34-1032): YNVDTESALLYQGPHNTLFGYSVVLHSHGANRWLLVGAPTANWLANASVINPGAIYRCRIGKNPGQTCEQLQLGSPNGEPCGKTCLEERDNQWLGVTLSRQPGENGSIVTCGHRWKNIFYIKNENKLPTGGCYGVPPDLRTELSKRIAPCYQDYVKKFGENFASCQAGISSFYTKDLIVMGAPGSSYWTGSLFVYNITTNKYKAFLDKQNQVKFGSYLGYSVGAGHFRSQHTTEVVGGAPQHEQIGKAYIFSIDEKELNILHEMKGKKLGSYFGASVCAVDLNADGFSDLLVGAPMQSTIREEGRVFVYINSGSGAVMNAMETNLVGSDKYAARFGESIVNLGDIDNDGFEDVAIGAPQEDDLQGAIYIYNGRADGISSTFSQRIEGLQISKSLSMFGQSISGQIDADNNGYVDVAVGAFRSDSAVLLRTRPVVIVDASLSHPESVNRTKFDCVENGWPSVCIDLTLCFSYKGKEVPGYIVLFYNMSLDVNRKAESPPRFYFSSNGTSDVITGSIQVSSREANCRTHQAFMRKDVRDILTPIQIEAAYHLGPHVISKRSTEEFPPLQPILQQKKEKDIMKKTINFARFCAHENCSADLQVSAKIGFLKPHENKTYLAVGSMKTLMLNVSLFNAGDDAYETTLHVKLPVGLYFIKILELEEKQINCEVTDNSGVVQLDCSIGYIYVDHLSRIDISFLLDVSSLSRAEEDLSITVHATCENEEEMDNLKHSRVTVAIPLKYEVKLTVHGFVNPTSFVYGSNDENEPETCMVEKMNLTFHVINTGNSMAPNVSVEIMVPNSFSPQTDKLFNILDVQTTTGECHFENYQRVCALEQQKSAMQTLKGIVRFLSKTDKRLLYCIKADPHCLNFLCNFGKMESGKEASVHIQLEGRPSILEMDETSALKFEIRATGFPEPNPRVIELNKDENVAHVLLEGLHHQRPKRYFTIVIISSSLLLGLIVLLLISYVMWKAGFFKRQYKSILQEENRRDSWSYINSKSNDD
Sequence (P26010 20-798): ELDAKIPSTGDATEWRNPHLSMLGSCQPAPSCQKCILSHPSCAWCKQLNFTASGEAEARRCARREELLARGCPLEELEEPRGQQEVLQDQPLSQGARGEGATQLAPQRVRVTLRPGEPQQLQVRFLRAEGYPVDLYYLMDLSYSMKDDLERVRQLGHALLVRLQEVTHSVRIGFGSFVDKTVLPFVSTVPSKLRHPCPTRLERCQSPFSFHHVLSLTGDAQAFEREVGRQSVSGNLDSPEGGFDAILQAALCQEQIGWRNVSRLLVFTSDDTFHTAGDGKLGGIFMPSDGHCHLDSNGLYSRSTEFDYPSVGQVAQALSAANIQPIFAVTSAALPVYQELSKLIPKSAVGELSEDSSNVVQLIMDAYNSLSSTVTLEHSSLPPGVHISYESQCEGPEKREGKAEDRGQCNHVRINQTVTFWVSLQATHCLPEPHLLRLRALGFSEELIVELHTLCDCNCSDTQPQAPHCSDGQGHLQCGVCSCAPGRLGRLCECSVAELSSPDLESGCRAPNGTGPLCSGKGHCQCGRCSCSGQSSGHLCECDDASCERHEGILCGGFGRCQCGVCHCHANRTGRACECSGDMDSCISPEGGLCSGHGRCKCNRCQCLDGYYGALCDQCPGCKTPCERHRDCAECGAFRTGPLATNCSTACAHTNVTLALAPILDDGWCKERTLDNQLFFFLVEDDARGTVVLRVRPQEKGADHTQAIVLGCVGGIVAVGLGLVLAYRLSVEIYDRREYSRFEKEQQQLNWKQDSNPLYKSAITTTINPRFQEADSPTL
Assay: Integrin Adhesion Assay: Protocol 1 (MAdCAM-coated plate, RPMI-8866 cells, CellTiter GLO readout)
Assay type: cell-based
readout_kind: IC50

Query block: Look up IC50: CN(C)Cc1cc(-c2cccc3c(C[C@H](NC(=O)c4c(F)cc(N5CCOC[C@@H]5C(F)(F)F)cc4CN4CCOCC4)C(=O)O)cccc23)c2cnccc2c1
Result block: < 0.01 µM

Query block: One more compound: Cn1ccc(C(F)(F)F)c(-c2cccc3c(C[C@H](NC(=O)c4c(F)cc(N5CCOCC5c5ccc(C(F)(F)F)cc5)cc4F)C(=O)O)cccc23)c1=O (stereo partly drawn)
Result block: 0.1 to 1 µM

Query block: And for Cn1c(=O)c(-c2cccc3c(C[C@H](NC(=O)c4c(F)cc(N(CC5COC5)C5COC5)cc4F)C(=O)O)cccc23)c(C(F)(F)F)c2ccccc21 ?
Result block: 0.01 to 0.1 µM

---
Query block: Form field: reported IC50 of CN(C)Cc1cccc2c(-c3cccc4c(C[C@H](NC(=O)[C@]5(C)CC[C@@H](N6CCOC[C@@H]6C(F)(F)F)CC5)C(=O)O)cccc34)nccc12
Result block: < 0.01 µM

Query block: Also CN(C)Cc1ccc2c(-c3cccc4c(C[C@H](NC(=O)C5(C)CCN(CC(F)(F)F)CC5)C(=O)O)cccc34)nccc2c1 , if possible.
Result block: 0.01 to 0.1 µM

Query block: Ok, now CN(C)Cc1cccc2c(-c3cccc4c(C[C@H](NC(=O)[C@]5(C)CC[C@H](N6CCC(F)(F)CC6)CC5)C(=O)O)cccc34)nccc12 [Compound 424]
Result block: < 0.01 µM
